Numbers sourced from ChEMBL document CHEMBL1150081.

System: Cyberlindnera jadinii
Test: Antifungal activity against Candida utilis ATCC 9226 after 2 days by broth dilution method
Type: functional
Conditions: Williopsis jadinii, ATCC 9226, 48 h
ASSAY READOUT: MIC (µg/mL)

# count of solved cases: 3
# COMPOUND, ASSAY READOUT, MEAS VALUE
rows = [
    ("CCCCCC/C=C/C=O [2-NONENAL]", "MIC", 25),
    ("CCCCC/C=C/C=O", "MIC", 50),
    ("CCCCCC(=O)O [HEXANOATE]", "MIC", 400),
]

[A] CCCC/C=C/C=O
[B] CCCCCCCC/C=C/C=O
[C] CCCCCCCC(=O)O [OCTANOIC ACID]
[D] CCCCCCC/C=C/C=O [TRANS-2-DECENAL]
Descending sort on MIC required. Submit the labels in the order that the ranking request calls for. C, A, D, B

----------
MIC listing for selected compounds.
Test system: Streptococcus mutans
Assay: Antibacterial activity against Streptococcus mutans ATCC […] after 2 days by broth dilution method
Assay type: functional
Settings: 48 h

# count of solved cases: 2
# COMPOUND, MIC
rows = [
    ("CCCCCC(=O)O [HEXANOATE]", "> 800 µg/mL"),
    ("CC(C)=CC=O [3-METHYL-(E)-2-BUTENAL]", "> 800 µg/mL"),
]

Requested field: MIC. Item: CCCCCC=O [HEXANAL] > 800 µg/mL

----------
Test system: Staphylococcus aureus
Assay: Antibacterial activity against Staphylococcus aureus ATCC 12598 after 2 days by broth dilution method
Type: functional
Settings: ATCC 12598, 48 h
MIC listing for selected molecules.

# count of solved cases: 2
# MOLECULE, TARGET UNDER TEST, MIC
measured = [
    ("CC(C)=CC=O [3-METHYL-(E)-2-BUTENAL]", "Staphylococcus aureus", "> 800 µg/mL"),
    ("CCCCCC(=O)O [HEXANOATE]", "Staphylococcus aureus", "> 800 µg/mL"),
]

Proceeding to the next molecule to report its MIC.
Requested field: MIC. Item: CCCCCC=O > 800 µg/mL
